Target: Bcl-2, P10415
Sequence (P10415 1-217): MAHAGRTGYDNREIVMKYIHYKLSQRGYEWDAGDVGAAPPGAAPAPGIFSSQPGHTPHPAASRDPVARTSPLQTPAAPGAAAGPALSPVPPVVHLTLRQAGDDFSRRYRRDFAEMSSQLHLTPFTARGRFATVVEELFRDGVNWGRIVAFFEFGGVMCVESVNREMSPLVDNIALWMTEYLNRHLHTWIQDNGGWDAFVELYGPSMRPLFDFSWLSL
Experiment: peptide SPOT array, c-Myc-tagged receptor at 1 uM or 100 nM, anti-c-Myc-Cy3
readoutType: SPOT signal as a fraction of Bim BH3's signal on the same receptor and array

A. MVLDPSLAEHLSHFGIDMLKMQKTDK [USP5]
B. AIPRAEVAELLVHSGDFLVRESQGKQ [FES]
**Query** Endpoint returns the identifier whose SPOT signal as a fraction of Bim BH3's signal on the same receptor and array is numerically larger, either A or B . Pick one and reply with its label.
**Result** A
(A: 0.02, B: 0.01)

I. AGLDMNISQFLKSLGLEHLRDIFETE [TNKS]
II. SSTMGQVGRQLAIIGDDINRRYDSEF [BAK1]
III. AYRGRGIAKHLAKAALDFVVEEDLKA [C17orf103]
IV. EQILAKIVELLKYSGDQLERKLKKDK [BCL2L14]
**Query** Order each entry by recorded SPOT signal as a fraction of Bim BH3's signal on the same receptor and array, climbing from the minimum. Put the labels in the order asked and list them.
**Result** I, III, II, IV
(I: 0.01, III: 0.05, II: 0.27, IV: 0.49)

Where these numbers come from: paper PMC4072508
